System: Nasturtium officinale (NAAOF)
Run description: Example B1 herbicidal action, post-emergence, 96-cell seed trays, climatic chamber
Assay type: in vivo
Set-up: scale not given here
Reported conditions: Application post-emergence, 1000 mg/l spray equivalent to 1000 g/ha, evaluated after 9 days (100=total damage to plant, 0=no damage to plant)
Threshold 4. damage to plant, Nasturtium officinale (NAAOF) below it: yes (1). damage to plant, Nasturtium officinale (NAAOF) at it or above: no (0).

Some solved cases for reference:
Compound	System name	Category
CCCCn1c(=O)c(-c2c(Cl)cccc2Cl)c(OC(C)=O)c2nccnc21 [Compound C40]	Nasturtium officinale (NAAOF)	yes (1)
Cc1ccc(F)c(-c2c(OC(=O)C(C)C)c3nccnc3n(C)c2=O)c1Cl [Compound C126]	Nasturtium officinale (NAAOF)	no (0)
CCn1c(=O)c(-c2c(F)ccc(F)c2Cl)c(OC(=O)C(C)(C)C)c2nccnc21 [Compound C21]	Nasturtium officinale (NAAOF)	no (0)
CC(=O)Oc1c(-c2ccc(Cl)cc2Cl)c(=O)n(C)c2nccnc12 [Compound C43]	Nasturtium officinale (NAAOF)	no (0)
Cn1c(=O)c(-c2ccccc2Cl)c(OC(=O)C(C)(C)C)c2nccnc21 [Compound C50]	Nasturtium officinale (NAAOF)	no (0)
CCn1c(=O)c(-c2c(C)cc(C)cc2C)c(OC(=O)C(C)C)c2nccnc21 [Compound C103]	Nasturtium officinale (NAAOF)	no (0)

Alright, here's another compound for you.
### Prompt Please state whether damage to plant, Nasturtium officinale (NAAOF) is below 4 for Cc1ccc(Cl)c(-c2c(O)c3nccnc3[nH]c2=O)c1F [Compound A33]
### Response yes (1)

###

Tested on: Amaranthus retroflexus (AMARE)
Run description: Example B1 herbicidal action, post-emergence, 96-cell seed trays, climatic chamber
Type: in vivo
Reported conditions: Application post-emergence, 1000 mg/l spray equivalent to 1000 g/ha, evaluated after 9 days
Property: damage to plant, Amaranthus retroflexus (AMARE)
Just the number, please, no unit after it.

Record excerpt, results attached:
Compound	System name	Reported value
CCC(=O)Oc1c(-c2c(Cl)cccc2Cl)c(=O)n(C)c2nccnc12	Amaranthus retroflexus (AMARE)	8
O=c1[nH]c2nccnc2c(O)c1-c1cc(Cl)ccc1Cl	Amaranthus retroflexus (AMARE)	8
Cn1c(=O)c(-c2cccc(C(F)(F)F)c2Cl)c(OC(=O)C(C)(C)C)c2nccnc21	Amaranthus retroflexus (AMARE)	4
CCn1c(=O)c(-c2c(Cl)cccc2C(F)(F)F)c(OC(=O)C(C)C)c2nccnc21	Amaranthus retroflexus (AMARE)	7
Cn1c(=O)c(-c2ccc(Cl)cc2Cl)c(OC(=O)C(C)(C)C)c2nccnc21	Amaranthus retroflexus (AMARE)	8
Cc1ccc(F)c(-c2c(OC(=O)C(C)C)c3nccnc3n(C)c2=O)c1Cl	Amaranthus retroflexus (AMARE)	6
CCCCC(CC)C(=O)Oc1c(-c2c(F)ccc(F)c2Cl)c(=O)n(C)c2nccnc12 (centres unmarked)	Amaranthus retroflexus (AMARE)	5

Alright, here's another compound for you.
Tested on Amaranthus retroflexus (AMARE), the item "Cc1ccc(Cl)c(-c2c(O)c3nccnc3[nH]c2=O)c1F" showed damage to plant, Amaranthus retroflexus (AMARE) equal to 4

###

System: Setaria faberi (SETFA)
Run description: Example B2 herbicidal action, post-emergence, pots in glasshouse
Format: in vivo
Reported conditions: Application post-emergence, evaluated after 13 days (100=total damage to plant; 0=no damage to plant)
Decision: damage to plant, Setaria faberi (SETFA) compared against 2; not below it gives fulfilled, below it gives not fulfilled.

A selection of reference data follows.
Mol	Category
Cc1cc(C)c(-c2c(O)c3nccnc3n(C)c2=O)c(C)c1	fulfilled
Cc1ccc(C)c(-c2c(O)c3nccnc3[nH]c2=O)c1	fulfilled

### Prompt For this compound, is measured damage to plant, Setaria faberi (SETFA) 2 or higher? "CCn1c(=O)c(-c2c(F)ccc(Br)c2Cl)c(OC(=O)C(C)C)c2nccnc21"
### Response not fulfilled

### Prompt Kindly determine if damage to plant, Setaria faberi (SETFA) recorded for "COc1ccc(OC(F)(F)F)cc1-c1c(OC(=O)C(C)C)c2nccnc2n(C)c1=O" is above or exactly 2.
### Response fulfilled

### Prompt Can "CC(C)C(=O)Oc1c(-c2cc(F)c(Cl)cc2Cl)c(=O)[nH]c2nccnc12" be said to have damage to plant, Setaria faberi (SETFA) at or above 2?
### Response fulfilled

### Prompt Assess whether reported damage to plant, Setaria faberi (SETFA) for "Cn1c(=O)c(-c2c(Cl)cc(OC(F)(F)F)cc2Cl)c(OC(=O)C(C)(C)C)c2nccnc21" sits at 2 or higher.
### Response fulfilled

### Prompt Say whether "CC(C)(C)C(=O)Oc1c(-c2c(F)ccc(F)c2Cl)c(=O)n(CC2CCC2)c2nccnc12" shows damage to plant, Setaria faberi (SETFA) of 2 or more.
### Response not fulfilled
